All values here come from the NIST ThermoML archive (doi:10.1021/je050389b).

Experiment: xn = mol fraction of the nth substance listed
Settings: 308.15 K; 100.5 kPa; Liquid; x1 = 0.3
Measured viscosity of individual entries
Measurement type: viscosity (mPa·s)

INSERT INTO results (compound, measurement_type, units_of_measure, observed_value) VALUES
  ('CCOC(=O)Cc1ccccc1 [ethyl phenylacetate] + CCO', 'viscosity', 'mPa·s', 1.138),
  ('CCCCCCCC(=O)OCC [ethyl octanoate] + CCO', 'viscosity', 'mPa·s', 0.953),
  ('CCOC(=O)c1ccccc1 [ethyl benzoate] + CCO', 'viscosity', 'mPa·s', 1.042),
  ('CC(=O)OCCC(C)C [3-methylbutyl ethanoate] + CCO', 'viscosity', 'mPa·s', 0.701),
  ('CCCCCC(=O)OCC [ethyl hexanoate] + CCO', 'viscosity', 'mPa·s', 0.769),
  ('CCCC(=O)OCCC(C)C [3-methylbutyl butanoate] + CCO', 'viscosity', 'mPa·s', 0.832);

###

Assay: xn = mol fraction of the nth substance listed
Conditions: 318.15 K; 100.5 kPa; Liquid; x1 = 0.55
Measurement type: viscosity (mPa·s)

INSERT INTO measurements (molecule, measurement_type, units_of_measure, observed_value) VALUES
  ('CCCCCC(=O)OCC [ethyl hexanoate] + CCO', 'viscosity', 'mPa·s', 0.662),
  ('CCCCCCCC(=O)OCC [ethyl octanoate] + CCO', 'viscosity', 'mPa·s', 0.888),
  ('CCCC(=O)OCCC(C)C [3-methylbutyl butanoate] + CCO', 'viscosity', 'mPa·s', 0.735),
  ('CC(=O)OCCC(C)C [3-methylbutyl ethanoate] + CCO', 'viscosity', 'mPa·s', 0.582),
  ('CCOC(=O)Cc1ccccc1 [ethyl phenylacetate] + CCO', 'viscosity', 'mPa·s', 1.191),
  ('CCOC(=O)c1ccccc1 [ethyl benzoate] + CCO', 'viscosity', 'mPa·s', 1.024);

###

Assay: xn = mol fraction of the nth substance listed
Settings: 288.15 K; 100.5 kPa; Liquid; x1 = 0.55
The entries below come with measured viscosity values attached.
Measurement type: viscosity (mPa·s)

INSERT INTO measurements (compound, measurement_type, observed_value) VALUES
  ('CCCCCCCC(=O)OCC [ethyl octanoate] + CCO', 'viscosity', 1.468),
  ('CCOC(=O)c1ccccc1 [ethyl benzoate] + CCO', 'viscosity', 1.773),
  ('CCOC(=O)Cc1ccccc1 [ethyl phenylacetate] + CCO', 'viscosity', 2.076),
  ('CCCC(=O)OCCC(C)C [3-methylbutyl butanoate] + CCO', 'viscosity', 1.191),
  ('CCCCCC(=O)OCC [ethyl hexanoate] + CCO', 'viscosity', 1.038),
  ('CC(=O)OCCC(C)C [3-methylbutyl ethanoate] + CCO', 'viscosity', 0.91);

###

Assay: xn = mol fraction of the nth substance listed
Conditions: 288.15 K; 100.5 kPa; Liquid; x1 = 0.9
Measurement type: viscosity (mPa·s)

INSERT INTO assay_data (compound, observed_value) VALUES
  ('CCCCCCCC(=O)OCC [ethyl octanoate] + CCO', 1.649),
  ('CCCCCC(=O)OCC [ethyl hexanoate] + CCO', 1.086),
  ('CCCC(=O)OCCC(C)C [3-methylbutyl butanoate] + CCO', 1.284),
  ('CC(=O)OCCC(C)C [3-methylbutyl ethanoate] + CCO', 0.937),
  ('CCOC(=O)c1ccccc1 [ethyl benzoate] + CCO', 2.267),
  ('CCOC(=O)Cc1ccccc1 [ethyl phenylacetate] + CCO', 2.79);

###

Assay: xn = mol fraction of the nth substance listed
Settings: 308.15 K; 101 kPa; Liquid; x1 = 0.25
Measurement type: mass density (kg/m3)

INSERT INTO results (compound, observed_value) VALUES
  ('CCOC(=O)c1ccccc1 [ethyl benzoate] + CCO', 893.77),
  ('CCCCCC(=O)OCC [ethyl hexanoate] + CCO', 814.44),
  ('CCCCCCCC(=O)OCC [ethyl octanoate] + CCO', 816.25),
  ('CCCC(=O)OCCC(C)C [3-methylbutyl butanoate] + CCO', 812.66),
  ('CCOC(=O)Cc1ccccc1 [ethyl phenylacetate] + CCO', 893.03);

###

Reported viscosity values for the following compounds.
Experiment: xn = mol fraction of the nth substance listed
Conditions: 308.15 K; 100.5 kPa; Liquid; x1 = 0.2
Measurement type: viscosity (mPa·s)

INSERT INTO results (compound, measurement_type, observed_value) VALUES
  ('CCCCCCCC(=O)OCC [ethyl octanoate] + CCO', 'viscosity', 0.926),
  ('CCOC(=O)c1ccccc1 [ethyl benzoate] + CCO', 'viscosity', 0.984),
  ('CCCC(=O)OCCC(C)C [3-methylbutyl butanoate] + CCO', 'viscosity', 0.838),
  ('CCOC(=O)Cc1ccccc1 [ethyl phenylacetate] + CCO', 'viscosity', 1.044),
  ('CC(=O)OCCC(C)C [3-methylbutyl ethanoate] + CCO', 'viscosity', 0.735),
  ('CCCCCC(=O)OCC [ethyl hexanoate] + CCO', 'viscosity', 0.789);

###

Test: xn = mol fraction of the nth substance listed
Conditions: 308.15 K; 101 kPa; Liquid; x1 = 0.6
Measurement type: mass density (kg/m3)

INSERT INTO measurements (compound, observed_value) VALUES
  ('CCOC(=O)c1ccccc1 [ethyl benzoate] + CCO', 978.54),
  ('CCCCCCCC(=O)OCC [ethyl octanoate] + CCO', 839.72),
  ('CCCCCC(=O)OCC [ethyl hexanoate] + CCO', 840.39),
  ('CCCC(=O)OCCC(C)C [3-methylbutyl butanoate] + CCO', 835.64),
  ('CCOC(=O)Cc1ccccc1 [ethyl phenylacetate] + CCO', 970.86);

###

Experiment: xn = mol fraction of the nth substance listed
Conditions: 318.15 K; 100.5 kPa; Liquid; x1 = 0.7
Measurement type: viscosity (mPa·s)

INSERT INTO assay_data (compound, observed_value) VALUES
  ('CCCCCC(=O)OCC [ethyl hexanoate] + CCO', 0.674),
  ('CCOC(=O)Cc1ccccc1 [ethyl phenylacetate] + CCO', 1.336),
  ('CCOC(=O)c1ccccc1 [ethyl benzoate] + CCO', 1.124),
  ('CC(=O)OCCC(C)C [3-methylbutyl ethanoate] + CCO', 0.588),
  ('CCCCCCCC(=O)OCC [ethyl octanoate] + CCO', 0.933),
  ('CCCC(=O)OCCC(C)C [3-methylbutyl butanoate] + CCO', 0.76);

###

Experiment: xn = mol fraction of the nth substance listed
Details: 288.15 K; 100.5 kPa; Liquid; x1 = 0.85
Measurement type: viscosity (mPa·s)

INSERT INTO results (compound, observed_value) VALUES
  ('CC(=O)OCCC(C)C [3-methylbutyl ethanoate] + CCO', 0.926),
  ('CCCC(=O)OCCC(C)C [3-methylbutyl butanoate] + CCO', 1.268),
  ('CCCCCC(=O)OCC [ethyl hexanoate] + CCO', 1.073),
  ('CCCCCCCC(=O)OCC [ethyl octanoate] + CCO', 1.623),
  ('CCOC(=O)c1ccccc1 [ethyl benzoate] + CCO', 2.178),
  ('CCOC(=O)Cc1ccccc1 [ethyl phenylacetate] + CCO', 2.672);

###

molecules and their reported mass density
Assay: xn = mol fraction of the nth substance listed
Conditions: 308.15 K; 101 kPa; Liquid; x1 = 0.75
± gives the expanded uncertainty stated by the source.
Measurement type: mass density

INSERT INTO measurements (molecule, observed_value) VALUES
  ('CCCC(=O)OCCC(C)C [3-methylbutyl butanoate] + CCO', '841.74 ± 0.28 kg/m3'),
  ('CCOC(=O)c1ccccc1 [ethyl benzoate] + CCO', '1002.01 ± 0.15 kg/m3'),
  ('CCCCCCCC(=O)OCC [ethyl octanoate] + CCO', '845.88 ± 0.26 kg/m3'),
  ('CCOC(=O)Cc1ccccc1 [ethyl phenylacetate] + CCO', '991.56 ± 0.27 kg/m3'),
  ('CCCCCC(=O)OCC [ethyl hexanoate] + CCO', '847.54 ± 0.22 kg/m3');

###

Experiment: xn = mol fraction of the nth substance listed
Conditions: 298.15 K; 101 kPa; Liquid; x1 = 0.1
Measurement type: mass density (kg/m3)

INSERT INTO assay_data (compound, units_of_measure, observed_value) VALUES
  ('CCOC(=O)Cc1ccccc1 [ethyl phenylacetate] + CCO', 'kg/m3', 843.05),
  ('CCCCCCCC(=O)OCC [ethyl octanoate] + CCO', 'kg/m3', 805.66),
  ('CCCCCC(=O)OCC [ethyl hexanoate] + CCO', 'kg/m3', 804.11),
  ('CCOC(=O)c1ccccc1 [ethyl benzoate] + CCO', 'kg/m3', 842.08),
  ('CCCC(=O)OCCC(C)C [3-methylbutyl butanoate] + CCO', 'kg/m3', 803.57);
